Biological target: T1, His-tagged PD-L1 ECD protein (ACROBiosystems) (human, UniProt Q9NZQ7 19-238)
T1 construct: Bought protein; also called PD-L1-His; PD-L1/His; not shown: His tag
T1 sequence (Q9NZQ7 19-238): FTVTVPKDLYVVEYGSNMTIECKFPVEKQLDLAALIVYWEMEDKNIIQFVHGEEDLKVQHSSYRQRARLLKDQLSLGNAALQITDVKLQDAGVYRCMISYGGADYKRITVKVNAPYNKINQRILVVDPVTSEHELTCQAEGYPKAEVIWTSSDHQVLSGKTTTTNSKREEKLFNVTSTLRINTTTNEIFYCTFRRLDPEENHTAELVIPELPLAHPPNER
Test: SPR, supernatant IgG captured, PD-L1-His analyte
readout kind: kon
Show the value, then the unit it is measured in.

{"columns": ["binder", "readout kind", "meas value"],
 "data": [
  ["29A8_VH5-VL1.M1 (antibody, human IgG1, kappa, N297A, V domains shown, Humanized, hIgG1 effector-less Fc, kappa; see recheck on K24R in the .M1 light chain) VH: EVQLQESGPGLVKPSETLSLTCTVSGYSITSDFAWDWIRQPPGKGLEWIGHIRFSGTTSYNPSLKSRVTISRDTSKNQFSLKLSSVTAADTAVYYCARSTLITKGFFDYWGQGTLVTVSS VL: DIQMTQSPSSLSASVGDRVTITCRASQDVSPAVAWYQQKPGKAPKLLIYWASTRHTGVPSRFSGSGSGTDFTLTISSLQPEDFATYYCQQHYSTPWTFGQGTKVEIKR", "kon", "550000 M⁻¹ s⁻¹"],
  ["29A8_VH2-VL1.M1 (antibody, human IgG1, kappa, N297A, V domains shown, Humanized, hIgG1 effector-less Fc, kappa; see recheck on K24R in the .M1 light chain) VH: EVQLQESGPGLVKPSETLSLTCTVSGYSITSDFAWDWIRQFPGKGLEWMGHIRFSGTTSYNPSLKSRITISVDTSKNQFSLKLSSVTAADTAVYYCARSTLITKGFFDYWGQGTLVTVSS VL: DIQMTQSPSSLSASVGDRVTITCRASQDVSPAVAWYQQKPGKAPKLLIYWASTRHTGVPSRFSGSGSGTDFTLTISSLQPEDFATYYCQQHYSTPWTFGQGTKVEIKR", "kon", "470000 M⁻¹ s⁻¹"],
  ["29A8_VH3-VL1.M1 (antibody, human IgG1, kappa, N297A, V domains shown, Humanized, hIgG1 effector-less Fc, kappa; see recheck on K24R in the .M1 light chain) VH: EVQLQESGPGLVKPSETLSLTCTVSGYSITSDFAWDWIRQFPGKGLEWMGHIRFSGTTSYNPSLKSRITISVDTSKNQFFLKLSSVTAADTATYYCARSTLITKGFFDYWGQGTLLTVSS VL: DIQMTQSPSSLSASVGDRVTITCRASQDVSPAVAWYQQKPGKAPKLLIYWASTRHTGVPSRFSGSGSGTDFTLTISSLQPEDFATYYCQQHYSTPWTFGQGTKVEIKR", "kon", "480000 M⁻¹ s⁻¹"]
]}

Problem: Reported kon for 29A8_chimeric (antibody, human IgG1, kappa, N297A, V domains shown, Human IgG1 with effector-less Fc mutations, human kappa; also called chimeric 29A8H8C7) VH: DVQLQGSGPGLVKPSQSLSLTCTVTGYSITSDFAWDWIRQFPGNKLEWMGHIRFSGTTSYNPSLKSRISITRDTSKNQFFLQLNSVTSEDTATYYCARSTLITKGFFDYWGQGTTLTVSS VL: DIVMTQSHKFMSTSVGGRVSITCKASQDVSPAVAWYQQKPGQSPKLLIYWASTRHTGVPDRFTGSGSGTDFTLTISSVQTEDLALYYCQQHYSTPWTFGGGTKLEIKR : what is it?
Result: 580000 M⁻¹ s⁻¹
